Recorded MIC by entry
# Test system: Salmonella typhimurium KCTC 1926
Give a bare numeral; the unit µM is implied.

See these solved cases before continuing.
{"MOLECULE": "CC[C@H](C)[C@H](NC(=O)[C@H](CS)NC(=O)[C@H](Cc1cnc[nH]1)NC(=O)[C@H](C)NC(=O)[C@H](C)N)C(=O)N[C@@H](CCC(N)=O)C(=O)N[C@@H](CC(C)C)C(=O)NCC(=O)N[C@@H](CCCCN)C(=O)N[C@@H](CCCN=C(N)N)C(N)=O [AAHCIQLGKR]", "READING UNIT": "µM", "ASSAY VALUE": 30}
{"MOLECULE": "CC[C@H](C)[C@H](NC(=O)[C@H](CCCCN)NC(=O)[C@H](CCCCN)NC(=O)[C@H](Cc1ccccc1)NC(=O)[C@H](CC(C)C)NC(=O)[C@H](CCCCN)NC(=O)[C@H](Cc1c[nH]c2ccccc12)NC(=O)[C@@H](N)CCCCN)C(=O)N[C@@H](CCCCN)C(=O)N[C@@H](Cc1ccccc1)C(=O)N[C@@H](CC(C)C)C(=O)N[C@@H](Cc1cnc[nH]1)C(=O)N[C@@H](CO)C(=O)N[C@@H](C)C(=O)N[C@@H](CCCCN)C(=O)N[C@@H](CCCCN)C(=O)N[C@@H](Cc1ccccc1)C(N)=O [KWKLFKKIKFLHSAKKF]", "READING UNIT": "µM", "ASSAY VALUE": 0.78}

// MIC (Salmonella typhimurium KCTC 1926) for CC(C)C[C@H](NC(=O)[C@H](CS)NC(=O)[C@H](Cc1cnc[nH]1)NC(=O)[C@H](C)NC(=O)[C@H](C)N)C(=O)N[C@@H](C)C(=O)N[C@@H](CCCCN)C(=O)N[C@@H](CCCN=C(N)N)C(=O)N[C@@H](CCCCN)C(=O)N[C@@H](CCCCN)C(N)=O [AAHCLAKRKK] = 30
